Compiled literature IC50, tested on Interstitial collagenase (Homo sapiens, UniProt P03956).

# example entries with known answers
# MOLECULE, IC50
rows = [
    ("CCCCCOc1ccc(C(=O)[C@H]2CC[C@@H](Cn3nnc4ccc(C)cc4c3=O)[C@@H]2C(=O)O)cc1 (racemic)", "24 µM"),
    ("O=C(NO)[C@H]1CN(C(=O)c2cccnc2)CCN1S(=O)(=O)c1cc(F)c(Oc2ccc(Cl)cc2)c(F)c1", "1 to 20 µM"),
    ("O=C(CC(CCn1nnc2ccccc2c1=O)C(=O)O)c1cc2ccc(OCC3CC3)cc2s1 (single isomer, unassigned; (+))", "> 40 µM"),
]

For the next question, use this molecule.
Give IC50 for this entry on Interstitial collagenase (Homo sapiens, UniProt P03956): O=C(C[C@H](CCn1nnc2ccccc2c1=O)C(=O)O)c1noc2cc(OCC3CCOCC3)ccc12 (single isomer, unassigned; enantiomer 2)
> 40 µM

----------
pIC50: −log10 of the molar value.
Compiled literature pIC50, tested on Interstitial collagenase (Homo sapiens).

# COMPOUND, pIC50
rows = [
    ("O=C(O)[C@@]1(N(CCO)S(=O)(=O)c2ccc(-c3ccc(Cl)cc3)cc2)C[C@H]1c1cccc(Oc2ccccc2)c1 (relative stereo)", "≤ 5.00"),
    ("CC(C)C[C@H](NS(=O)(=O)c1ccc(C#Cc2ccc3ccccc3c2)cc1)C(=O)O", "< 5.00"),
    ("CN(C)c1ccc2ccc(S(=O)(=O)N3CCN(S(=O)(=O)c4cc(F)c(Oc5ccc(Cl)cc5)c(F)c4)[C@@H](C(=O)NO)C3)cc2c1", "< 4.70"),
]

Assign pIC50 to the following record: O=C(O)[C@@]1(N(CCNS(=O)(=O)C(F)(F)F)S(=O)(=O)c2ccc(-c3ccc(Cl)cc3)cc2)C[C@H]1c1cccc(NS(=O)(=O)CCN2CCCCC2)c1 (relative stereo)
≤ 5.00

Assign pIC50 to the following record: Cc1ccc2nnn(C[C@H]3CC[C@@H](C(=O)c4ccc(OCc5cccc(OC(F)(F)F)c5)cc4)[C@@H]3C(=O)O)c(=O)c2c1 (single isomer, unassigned)
< 4.40

Assign pIC50 to the following record: Cc1cccc(COc2ccc3oc(C(=O)CC(CCn4nnc5ccccc5c4=O)C(=O)O)cc3c2)c1 (racemic)
< 4.40

Assign pIC50 to the following record: CN1CCN(C(=O)N2CCN(S(=O)(=O)c3cc(F)c(Oc4ccc(Cl)cc4)c(F)c3)[C@@H](C(=O)NO)C2)CC1
< 4.70

Assign pIC50 to the following record: O=C(O)c1cccc(CN([C@]2(C(=O)O)C[C@H]2c2cccc(NC(=O)c3cccnc3)c2)S(=O)(=O)c2ccc(-c3ccc(Cl)cc3)cc2)c1 (relative stereo)
≤ 5.00

----------
Compiled literature IC50, tested on UniProtKB P03956.

# COMPOUND, QUANTITY, MEASURED_RESULT
measured = [
    ("N#Cc1ccc(Oc2ccc(S(=O)(=O)N3CCN(C(=O)N4CCOCC4)C[C@@H]3C(=O)NO)cc2F)cc1", "IC50", "0.05 to 1 µM"),
    ("O=C(O)[C@H](CO)NS(=O)(=O)c1ccc2c(c1)Cc1ccccc1O2", "IC50", "> 100 µM"),
    ("Cc1cccc(C(=O)NO)c1N(C)S(=O)(=O)c1ccc(Oc2ccncc2)cc1", "IC50", "3.25 µM"),
    ("COc1ccc(S(=O)(=O)N(C)c2cccc(/C(=C\\C(=O)NO)c3ccccc3)c2)cc1OC", "IC50", "> 10 µM"),
]

Assign IC50 to the following record: O=C(O)CC[C@H](NC(=O)c1ccc(-c2ccccc2)cc1)C(=O)NC1Cc2ccccc2C1
> 50 µM

Assign IC50 to the following record: N#Cc1ccccc1[C@@H]1C[C@@]1(C(=O)O)N(CC(=O)O)S(=O)(=O)c1ccc(-c2ccc(Cl)cc2)cc1 (relative stereo)
≥ 10 µM

Assign IC50 to the following record: O=C(O)CN([C@]1(C(=O)O)C[C@H]1c1cccc(Cl)c1Cl)S(=O)(=O)c1ccc(-c2ccc(Cl)cc2)cc1 (relative stereo)
≥ 10 µM
